Reported pKd by item:
# Target of assay: SARS-CoV-2 spike protein receptor binding domain (RBD2) (SARS-CoV-2, UniProt P0DTC2 319-537)
# Protocol: SPR
By convention, pKd is the negative base-10 log of a molar concentration.

Take a look at these entries with their results.
| Binder | Recorded result |
| --- | --- |
| E08 IgG1 (antibody, V domains shown) VH: QVQLVQSGAEVKKPGSSVKVSCKASGGTFSSYAISWVRQAPGQGLEWMGGIIPIFGTANYAQKFQGRVTITADESTSTAYMELSSLRSEDTAVYYCARASGRWLQFWHYYGMDVWGQGTTVTVSS VL: SYVLTQPPSVSVAPGKTARITCGGNNIGWKSVHWYQQKPGQAPVLVVYDDSDRPSGIPERFSGSNSGNTATLTISRVEAGDEADYYCQVWDSSSDLVVFGGGTKLTVL | 7.57 |
| F07 IgG1 (antibody, V domains shown) VH: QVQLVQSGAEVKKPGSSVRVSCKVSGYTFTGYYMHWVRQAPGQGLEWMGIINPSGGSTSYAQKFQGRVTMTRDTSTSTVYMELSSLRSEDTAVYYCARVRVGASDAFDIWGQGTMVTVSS VL: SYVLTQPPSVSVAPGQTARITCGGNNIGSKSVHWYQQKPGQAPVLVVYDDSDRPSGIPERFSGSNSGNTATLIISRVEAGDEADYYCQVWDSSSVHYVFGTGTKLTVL | 6.52 |
| H05 IgG1 (antibody, V domains shown, also called H5; HO5) VH: QVQLVQSGAEVKKPGSSVKVSCKASGGTFSSYAISWVRQAPGQGLEWMGGIIPIFGTANYAQKFQGRVTITADESTSTAYMELSSLRSEDTAVYYCARSIFGVVIISHADGYYYGMDVWGQGTTVTVSS VL: SYVLTQPPSVSVAPGQTARITCGANNIGRISVHWYQQKPGQAPVLVVYDDSDRPSGIPERFSGSNFGNTATLTISRVEAGDEADYYCQVWDSYSDHVIFGGGTKLTVL | 7.29 |
| E08 minibody (scFv-Fc) (Fc fusion) SYVLTQPPSVSVAPGKTARITCGGNNIGWKSVHWYQQKPGQAPVLVVYDDSDRPSGIPERFSGSNSGNTATLTISRVEAGDEADYYCQVWDSSSDLVVFGGGTKLTVLSGGSTITSYNVYYTKLSSSGTQVQLVQSGAEVKKPGSSVKVSCKASGGTFSSYAISWVRQAPGQGLEWMGGIIPIFGTANYAQKFQGRVTITADESTSTAYMELSSLRSEDTAVYYCARASGRWLQFWHYYGMDVWGQGTTVTVSS | 8.44 |

Prompt: Which pKd reading was recorded for the binder R04 minibody (scFv-Fc) (Fc fusion) EIVMTQSPSSLSASVGDRVTITCQASQDISNYLNWCQQKPGKAPKLLIYDASNLETGVPSRFSGSGSGTGFTFTISSLQPEDFATYYCQQSYSTPYTFGQGTKVEIKSGGSTITSYNVNYTKLSSSGAQVQLQQSGPGLVKSSQTLSLTCAISGDSVSSNGAAWHWIRQSPSRGLEWLGRTYYRSGWYNDYAVSVKSRITINQDTSKNQFSLQLNSVTPEDTAVYFCAREGGGGRMDVWSQGTTVTVSS ?
Completion: 6.89

Origin of the recorded values: patent US12018066
